Ref: PubChem BioAssay (EPA / NIEHS)

# measurement.description: BSK_3C_uPAR: BioMAP Diversity Plus: 3C Assay for Urokinase-type plasminogen activator receptor (uPAR) Biomarker Activity (AID 2282998)
# run.parameters: BioMAP 3C HUVEC, uPAR biomarker ELISA; actives raise or lower the signal
Active and inactive are the calls of the source. The calls were made as follows: active = hit-call score of the fitted dose curve at least 0.9, where 1 is the maximum; inactive = score below 0.9.
Outcomes: active, inactive

[
  {
    "molecule": "Cn1cnc([N+](=O)[O-])c1Sc1ncnc2nc[nH]c12",
    "class.assignment": "inactive"
  },
  {
    "molecule": "CCOC(=O)c1ccc(C2CCC(NC[C@H](O)COc3ccc(O)c(NS(C)(=O)=O)c3)CC2)cc1 (stereo partly drawn)",
    "class.assignment": "active"
  },
  {
    "molecule": "O=C(CCCCCCCCc1cccnc1)N1CCC(C=C(c2ccccc2)c2ccccc2)CC1",
    "class.assignment": "active"
  },
  {
    "molecule": "CCCCC(CC)COC(=O)c1ccc(C(=O)OCC(CC)CCCC)cc1 (stereo not drawn)",
    "class.assignment": "inactive"
  },
  {
    "molecule": "CCCN(C1CCN(C(=O)C2CCNCC2)CC1)[C@@H]1CCc2ccc(OC)cc2C1",
    "class.assignment": "inactive"
  },
  {
    "molecule": "C=CCCCCCCCCC(=O)O",
    "class.assignment": "inactive"
  },
  {
    "molecule": "Cc1c(-c2cccnc2)c2ccccc2n1CCCCC(=O)O",
    "class.assignment": "inactive"
  },
  {
    "molecule": "CCOCCO",
    "class.assignment": "inactive"
  },
  {
    "molecule": "Cn1c(=O)cc(Oc2ccc(F)cc2F)c2cnc(NCC(C)(C)O)nc21",
    "class.assignment": "inactive"
  },
  {
    "molecule": "CC(C)(O)c1coc(S(=O)(=O)NC(=O)Nc2c3c(cc4c2CCC4)CCC3)c1",
    "class.assignment": "inactive"
  },
  {
    "molecule": "CNS(=O)(=O)c1cc(C(=O)N2CCC(CCN3C4CCC3CC(n3c(C)nc5ccccc53)C4)(c3cccc(F)c3)CC2)c(Cl)cc1F (stereo not drawn)",
    "class.assignment": "active"
  },
  {
    "molecule": "CC(=O)OCCC(C)C",
    "class.assignment": "inactive"
  },
  {
    "molecule": "COC(=O)c1c(Cl)c(Cl)c(C(=O)OC)c(Cl)c1Cl",
    "class.assignment": "inactive"
  },
  {
    "molecule": "CCCC(=O)OCC",
    "class.assignment": "inactive"
  },
  {
    "molecule": "Nc1nc2ncc(CNc3ccc(C(=O)N[C@@H](CCC(=O)O)C(=O)O)cc3)nc2c(=O)[nH]1",
    "class.assignment": "inactive"
  },
  {
    "molecule": "O=C1OC(=O)C2C3C=CC(C3)C12 (stereo not drawn)",
    "class.assignment": "inactive"
  },
  {
    "molecule": "CCCCCCCCO",
    "class.assignment": "inactive"
  },
  {
    "molecule": "O=P(OC(CCl)CCl)(OC(CCl)CCl)OC(CCl)CCl",
    "class.assignment": "inactive"
  },
  {
    "molecule": "CC[C@H]1OC(=O)[C@H](C)[C@@H](O[C@H]2C[C@@](C)(OC)[C@@H](O)[C@H](C)O2)[C@H](C)[C@@H](O[C@@H]2O[C@H](C)C[C@H](N(C)C)[C@H]2O)[C@](C)(O)C[C@@H](C)C(=O)[C@H](C)[C@@H](O)[C@]1(C)O",
    "class.assignment": "inactive"
  },
  {
    "molecule": "Cc1ccc(S(=O)(=O)O)cc1C",
    "class.assignment": "inactive"
  },
  {
    "molecule": "O=c1[nH]c2ccc(S(=O)CCN3CCC(Cc4ccc(F)cc4)CC3)cc2o1 (stereo not drawn)",
    "class.assignment": "inactive"
  },
  {
    "molecule": "O=C(O)c1cccc(Oc2ccccc2)c1",
    "class.assignment": "inactive"
  },
  {
    "molecule": "CCc1cc(SCc2sc(-c3ccc(C(F)(F)F)cc3)nc2CN2CCN(c3ccc(OC)cc3)CC2)ccc1OCC(=O)O",
    "class.assignment": "active"
  },
  {
    "molecule": "O=C(O)CCN(C1(C(=O)NO)CCCC1)S(=O)(=O)c1ccc(Oc2ccc(F)cc2)cc1",
    "class.assignment": "inactive"
  },
  {
    "molecule": "C1N2CN3CN1CN(C2)C3",
    "class.assignment": "inactive"
  },
  {
    "molecule": "O=C1CCCCCN1",
    "class.assignment": "inactive"
  },
  {
    "molecule": "Cc1ccc(N)cc1O",
    "class.assignment": "inactive"
  },
  {
    "molecule": "CC1=CC(=O)CC(C)(C)C1",
    "class.assignment": "inactive"
  },
  {
    "molecule": "O=C(OC[C@H]1O[C@@H](OC(=O)c2cc(O)c(O)c(OC(=O)c3cc(O)c(O)c(O)c3)c2)[C@H](OC(=O)c2cc(O)c(O)c(OC(=O)c3cc(O)c(O)c(O)c3)c2)[C@@H](OC(=O)c2cc(O)c(O)c(OC(=O)c3cc(O)c(O)c(O)c3)c2)[C@@H]1OC(=O)c1cc(O)c(O)c(OC(=O)c2cc(O)c(O)c(O)c2)c1)c1cc(O)c(O)c(OC(=O)c2cc(O)c(O)c(O)c2)c1",
    "class.assignment": "inactive"
  },
  {
    "molecule": "Fc1ccccc1[C@@H](F)COC1CCC(Nc2ncnc3[nH]ncc23)CC1 (stereo partly drawn)",
    "class.assignment": "active"
  },
  {
    "molecule": "COc1ccc(-n2nc(C(F)F)cc2-c2ccc(S(C)=O)cc2)cc1 (stereo not drawn)",
    "class.assignment": "inactive"
  },
  {
    "molecule": "Nc1ccc(Nc2ccccc2)cc1",
    "class.assignment": "inactive"
  },
  {
    "molecule": "COC(=O)c1ccccc1O",
    "class.assignment": "inactive"
  }
]

* * *

# measurement.description: BSK_hDFCGF_Proliferation: Cell Proliferation Assessment in the BioMAP Diversity Plus: hDFCGF Assay (AID 2283059);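 also: curves fitted for both rise and fall of signal versus DMSO baseline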
# run.parameters: primary human foreskin fibroblasts
Calls of active or inactive are those of the source. The calls were made as follows: active = hit-call score of the fitted dose curve at least 0.9, where 1 is the maximum; inactive = score below 0.9.
Outcomes: 1.0 (active), 0.0 (inactive)

[
  {
    "compound": "CNCc1ccc(NC(=O)c2c[nH]c3c2C(=O)CCC3)cc1",
    "class.assignment": 0.0
  },
  {
    "compound": "CC[C@H](C)C(=O)O[C@H]1C[C@@H](C)C=C2C=C[C@H](C)[C@H](CC[C@@H]3C[C@@H](O)CC(=O)O3)[C@H]21",
    "class.assignment": 1.0
  },
  {
    "compound": "COC(=O)CC(=O)OC",
    "class.assignment": 0.0
  },
  {
    "compound": "COc1ccc(-n2nc(C(F)F)cc2-c2ccc(S(C)=O)cc2)cc1 (stereo unspecified)",
    "class.assignment": 0.0
  },
  {
    "compound": "CC1=CC(=O)CC(C)(C)C1",
    "class.assignment": 0.0
  },
  {
    "compound": "COc1ccc2sc(C(=O)Nc3nnn[nH]3)c(OC(C)C)c2c1",
    "class.assignment": 1.0
  }
]

* * *

# Read-out: Monokine induced gamma interferon (MIG), CXCL9 (gene 4283)
# measurement.description: BSK_CASM3C_MIG: BioMAP Diversity Plus: CASM3C Assay for Monokine induced gamma interferon (MIG) Biomarker Activity (AID 2283048);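 also: MIG protein level measured by ELISA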
# run.parameters: primary human coronary artery smooth muscle cells; actives raise or lower the signal
Activity calls are given as the source filed them. The calls were made as follows: active = hit-call score of the fitted dose curve at least 0.9, where 1 is the maximum; inactive = score below 0.9.

[
  {
    "molecule": "COc1ccc(/C=C/S(=O)(=O)NC(=O)c2ccc(C)cc2Cl)cc1",
    "outcome": "inactive"
  },
  {
    "molecule": "CC(=O)OC[C@H]1O[C@@](COC(C)=O)(O[C@H]2O[C@H](COC(C)=O)[C@@H](OC(C)=O)[C@H](OC(C)=O)[C@H]2OC(C)=O)[C@@H](OC(C)=O)[C@@H]1OC(C)=O",
    "outcome": "inactive"
  },
  {
    "molecule": "Cn1c(=O)c2c(ncn2C)n(C)c1=O",
    "outcome": "inactive"
  },
  {
    "molecule": "CCC(C)(C)C(=O)O[C@H]1C[C@@H](C)C=C2C=C[C@H](C)[C@H](CC[C@@H]3C[C@@H](O)CC(=O)O3)[C@H]21",
    "outcome": "inactive"
  },
  {
    "molecule": "CCCCC(CC)COC(=O)c1ccc(C(=O)OCC(CC)CCCC)cc1 (centres undefined)",
    "outcome": "inactive"
  },
  {
    "molecule": "C=CCCCCCCCCC(=O)O",
    "outcome": "inactive"
  },
  {
    "molecule": "COC(=O)c1c(Cl)c(Cl)c(C(=O)OC)c(Cl)c1Cl",
    "outcome": "inactive"
  },
  {
    "molecule": "COC(=O)CC(=O)OC",
    "outcome": "inactive"
  },
  {
    "molecule": "CCCCC(CC)COC(=O)CCCCCCCCC(=O)OCC(CC)CCCC (centres undefined)",
    "outcome": "inactive"
  },
  {
    "molecule": "Cc1[nH]cnc1C[C@H]1CCc2c(C)c3ccccc3n2C1=O",
    "outcome": "inactive"
  },
  {
    "molecule": "CCOCCOCCOCCO",
    "outcome": "inactive"
  },
  {
    "molecule": "Clc1nc(Cl)c(Cl)c(Cl)c1Cl",
    "outcome": "inactive"
  },
  {
    "molecule": "CCOC(=O)COc1ccc2c(c1)CC(NCC(O)c1cccc(Cl)c1)CC2 (centres undefined)",
    "outcome": "inactive"
  },
  {
    "molecule": "CC[C@H]1CC[C@H](NCc2cc3c(cc2OC)[C@H]2C[C@H]2C(=O)N3C)[C@H](c2ccccc2)N1",
    "outcome": "inactive"
  },
  {
    "molecule": "COc1cccc(-c2ccc(/C=C\\CN3CCCCCC3)cc2Cl)c1",
    "outcome": "inactive"
  },
  {
    "molecule": "CC(C)CCCCCCCOC(=O)CCCCC(=O)OCCCCCCCC(C)C",
    "outcome": "inactive"
  },
  {
    "molecule": "Nc1ccc(Nc2ccccc2)cc1",
    "outcome": "inactive"
  },
  {
    "molecule": "Nc1cccc(N)c1",
    "outcome": "inactive"
  },
  {
    "molecule": "O=P(OC(CCl)CCl)(OC(CCl)CCl)OC(CCl)CCl",
    "outcome": "inactive"
  },
  {
    "molecule": "COc1ccc2sc(C(=O)Nc3nnn[nH]3)c(OC(C)C)c2c1",
    "outcome": "inactive"
  },
  {
    "molecule": "O=C1CCCCCN1",
    "outcome": "inactive"
  },
  {
    "molecule": "NC(=O)NO",
    "outcome": "inactive"
  },
  {
    "molecule": "CCn1nc(Cc2ccccc2)cc1C1CCN(C[C@H]2C[C@H](N(C)[C@@H](C(=O)O)C(C)C)C[C@@H]2c2cccc(F)c2)CC1",
    "outcome": "inactive"
  },
  {
    "molecule": "CN(C)c1ccc(N=NS(=O)(=O)O)cc1",
    "outcome": "inactive"
  },
  {
    "molecule": "CC(=O)c1ccc2c(c1)[C@H](NC(=O)c1ccc(F)cc1)[C@@H](O)C(C)(C)O2",
    "outcome": "inactive"
  },
  {
    "molecule": "O=c1[nH]c2ccc(S(=O)CCN3CCC(Cc4ccc(F)cc4)CC3)cc2o1 (centres undefined)",
    "outcome": "inactive"
  },
  {
    "molecule": "CC(C)c1cccc(C(C)C)c1N1C(=O)c2ccc(O)cc2C1=O",
    "outcome": "inactive"
  },
  {
    "molecule": "O=C1OC(=O)C2C3C=CC(C3)C12 (centres undefined)",
    "outcome": "inactive"
  },
  {
    "molecule": "CCN(C(=O)c1cc(C)cc(OC[C@H](C)Nc2ccncc2)c1)C(C)C",
    "outcome": "inactive"
  },
  {
    "molecule": "CC(C)=CCC/C(C)=C\\CO",
    "outcome": "inactive"
  },
  {
    "molecule": "Cc1ccc(C)c(O)c1",
    "outcome": "inactive"
  },
  {
    "molecule": "CNS(=O)(=O)c1cc(C(=O)N2CCC(CCN3C4CCC3CC(n3c(C)nc5ccccc53)C4)(c3cccc(F)c3)CC2)c(Cl)cc1F (centres undefined)",
    "outcome": "inactive"
  },
  {
    "molecule": "COCCOc1cc2cc(C(=O)NC3CCN(C(C)C)CC3)n(CC(=O)Nc3ccc(Cl)cn3)c2cn1",
    "outcome": "inactive"
  },
  {
    "molecule": "O=C(O)CCN(C1(C(=O)NO)CCCC1)S(=O)(=O)c1ccc(Oc2ccc(F)cc2)cc1",
    "outcome": "inactive"
  },
  {
    "molecule": "COC(=O)c1ccccc1O",
    "outcome": "inactive"
  },
  {
    "molecule": "CC(C)CCO",
    "outcome": "inactive"
  },
  {
    "molecule": "C[C@](N)(Cc1ccc(O)c(O)c1)C(=O)O",
    "outcome": "inactive"
  },
  {
    "molecule": "O=C(O)c1cc(N=Nc2ccc(S(=O)(=O)Nc3ccccn3)cc2)ccc1O",
    "outcome": "inactive"
  },
  {
    "molecule": "On1ccccc1=S",
    "outcome": "inactive"
  }
]
